# PROTOCOL: Cycloheximide Counterscreen for Small Molecule Inhibitors of Shiga Toxin; further: read at 38.3 µM for the half of the compounds with a filed dose
# CONDITION CONTEXT: cell reporter, cycloheximide protein synthesis inhibition counterscreen
About 37,000 (12%) of roughly 300,000 compounds were called active. No stated cut-off is given here; in the data, active means max response mostly above about 13% (no sharp cut-off); inactive means mostly below about 14%. Shown is part of a subset that was picked to be rich in actives.
Your response should consist of one outcome taken from class 1 for active, class 0 for inactive

Below are worked cases with known answers.
CCCC(=O)N1CCC(CCC(=O)NC2CC2)CC1 : class 0
COCCCn1c(-c2cccs2)nc2nc3ccccc3nc21 : class 0
CCOC(=O)c1[nH]c2c(c1-c1ccccc1)C(=O)CC(c1ccc(Cl)cc1)C2 (stereo unspecified) : class 0

Q. How was COCCOC(=O)c1[nH]c2c(c1C)C(=O)CC(c1ccc(OC)cc1)C2 (stereo unspecified) classified in this test?
A. class 0

Q. How was CCOC(=O)c1[nH]c2c(c1C)C(=O)CC(c1ccc(N(C)C)cc1)C2 (stereo unspecified) classified in this test?
A. class 1

Q. How was Cc1ccc(NC(=S)N(CCCN2CCC(C)CC2)Cc2ccco2)cc1 classified in this test?
A. class 0

* * *

# PROTOCOL: Cycloheximide Counterscreen for Small Molecule Inhibitors of Shiga Toxin; further: read at 38.3 µM for the half of the compounds with a filed dose
# CONDITION CONTEXT: cell reporter, cycloheximide protein synthesis inhibition counterscreen
The campaign covered roughly 300,000 compounds. About 37,000 (12%) were called active. No stated cut-off is given here; in the data, active means max response mostly above about 13% (no sharp cut-off); inactive means mostly below about 14%. This is one part of a sample in which actives are shown more often than they occur.
Your response should consist of one outcome taken from active, inactive

Below are worked cases with known answers.
COc1ccc(S(=O)(=O)N/N=C\c2ccc(OC)c(COc3ccc(C)cc3[N+](=O)[O-])c2)cc1 : inactive
Cc1cnc(C)c(N2CCN(C(=O)C3CCC(=O)N(CCc4cccc(F)c4)C3)CC2)n1 (stereo unspecified) : inactive
Cn1c(=N)n(CC(O)c2ccccc2)c2ccccc21 (stereo unspecified) : active
O=C(NCc1ccccn1)c1cnc2sccn2c1=O : inactive
CC1CCN(S(=O)(=O)c2ccc3c(ccn3CC(=O)O)c2)CC1 : inactive

Q. How was COc1ccc(CCNc2ncnc3c2nnn3Cc2ccccc2)cc1 classified in this test?
A. inactive

Q. How was COc1ccc(CNC(=O)c2cc(C(=O)C3CC3)c[nH]2)cc1 classified in this test?
A. inactive

Q. How was COc1ccccc1NC(=O)CN(c1ccccc1OC)S(=O)(=O)c1ccccc1 classified in this test?
A. inactive

Q. How was Cc1ccc(O)c(NC(=O)c2cc(-c3ccco3)on2)c1 classified in this test?
A. active

Q. How was NNC(=O)CSc1nnc(-c2ccccc2)n1-c1ccccc1 classified in this test?
A. inactive

Q. How was O=C(Oc1cccc(C(=S)N2CCOCC2)c1)c1cccc(Cl)c1 classified in this test?
A. inactive

Q. How was Cc1cc2cc3c(cc2nc1SCC(=O)Nc1c(C)cccc1C)CCC3 classified in this test?
A. inactive

Q. How was O=C(Cc1cccs1)NCc1cccc(C(F)(F)F)c1 classified in this test?
A. active

Q. How was O=C(CN(C(=O)c1nsc(Cl)c1Cl)c1cccc(F)c1)NC1CCCC1 classified in this test?
A. inactive

Q. How was NS(=O)(=O)c1ccc(NC(=O)COC(=O)c2cc3ccccc3oc2=O)cc1 classified in this test?
A. active

Q. How was O=S(=O)(O)c1nc2ccccc2n1Cc1ccc(Cl)cc1Cl classified in this test?
A. inactive

Q. How was COc1ccc(COCCN2CCN(S(=O)(=O)c3ccccc3)CCC2=O)cc1 classified in this test?
A. inactive

Q. How was Cc1ccccc1NC(=S)NNC(=O)c1cccc(Br)c1 classified in this test?
A. active

Q. How was O=C(O)c1ccc(Cn2c(=S)[nH]c3cc(Cl)ccc3c2=O)cc1 classified in this test?
A. inactive

Q. How was O=C(NCc1ccccc1)c1ccc(S(=O)(=O)Nc2cccc(C(F)(F)F)c2)cc1 classified in this test?
A. inactive

Q. How was c1ccc(COc2ccccc2CNCc2cccnc2)cc1 classified in this test?
A. inactive

Q. How was CCNCc1cc2cc(C)ccc2[nH]c1=O classified in this test?
A. inactive

Q. How was CN1OC(COC(=O)c2ccc(Cl)cc2)CC1c1ccccc1 (stereo unspecified) classified in this test?
A. active

Q. How was Cc1ccc(C)c(NC(=O)c2ccc(OC(=O)c3ccco3)cc2)c1 classified in this test?
A. inactive

Q. How was COc1ccccc1/C=N\Nc1cc(C)nc(-n2nc(C)cc2C)n1 classified in this test?
A. inactive

Q. How was COc1cccc(CNC(=O)Cc2csc(Nc3nc(=S)[nH]c4ccccc34)n2)c1 classified in this test?
A. inactive

Q. How was COC(=O)Cc1ccc(N(Cc2ccccc2F)S(=O)(=O)c2ccc(Br)cc2)cc1 classified in this test?
A. inactive

Q. How was CC(=O)Nc1ccccc1OC(=O)N1CCOCC1 classified in this test?
A. inactive

Q. How was CCc1nnc(NC(=O)CCCSc2nc3ccccc3[nH]2)s1 classified in this test?
A. inactive

Q. How was CC(=O)OCc1cc2cc(C)ccc2[nH]c1=O classified in this test?
A. inactive

Q. How was COC(=O)c1sc2ncccc2c1OCc1ccc(Cl)cc1Cl classified in this test?
A. inactive

Q. How was COc1ccc(NC(=O)c2cc(-c3ccc(C)cc3)on2)cc1 classified in this test?
A. inactive

Q. How was Cc1cc(C)cc(OCC(=O)NNC(=O)CCN2C(=O)c3ccccc3C2=O)c1 classified in this test?
A. inactive

* * *

# PROTOCOL: Cycloheximide Counterscreen for Small Molecule Inhibitors of Shiga Toxin; further: read at 38.3 µM for the half of the compounds with a filed dose
# CONDITION CONTEXT: cell reporter, cycloheximide protein synthesis inhibition counterscreen
About 37,000 (12%) of roughly 300,000 compounds were called active. No stated cut-off is given here; in the data, active means max response mostly above about 13% (no sharp cut-off); inactive means mostly below about 14%. This excerpt belongs to a sample that is enriched for actives.
Your response should consist of one outcome taken from 1 (active), 0 (inactive)

Below are worked cases with known answers.
COc1ccc(N2CCN(C(=O)CSc3nnc4ncccn34)CC2)cc1 : 0
COc1ccccc1N1CCN(C(=O)CCS(=O)(=O)c2ccc3c(c2)NC(=O)C(C)S3)CC1 (configuration not stated) : 0
Cc1ccc(NC(=O)c2cccs2)cc1S(=O)(=O)N(C)C : 1
CCC(=O)c1ccc(OC(=O)/C=C/c2cc(OC)c(OC)c(OC)c2)cc1 : 0
Cc1ccc(-n2c(C)cc(/C=C(\C#N)C(=O)NCC3CCCO3)c2C)cc1 (configuration not stated) : 1

Q. How was Cc1ccc(S(=O)(=O)N2CCC(C(=O)NCC3CCCO3)CC2)cc1 (configuration not stated) classified in this test?
A. 0

Q. How was CCCCN1C(=O)/C(=C(/C#N)C(N)=O)c2ccccc21 classified in this test?
A. 0

Q. How was O=C(Nc1ccc2c(c1)OCCO2)c1ccncc1 classified in this test?
A. 1

Q. How was O=C(O)CCn1c(Cc2ccccc2)nc2ccccc21 classified in this test?
A. 0

Q. How was COc1ccccc1C(=O)Nc1cccc(C(=O)N2CCOCC2)c1 classified in this test?
A. 0

Q. How was Nc1nc(Nc2ccccc2)nc(NCCO)c1[N+](=O)[O-] classified in this test?
A. 0

Q. How was O=[N+]([O-])c1cccc(Nc2c3ccccc3nc3ccccc23)c1 classified in this test?
A. 0

Q. How was Cc1ccc(C(=O)Nc2ccc(C)c(S(=O)(=O)N(C)C)c2)s1 classified in this test?
A. 1

* * *

# PROTOCOL: Cycloheximide Counterscreen for Small Molecule Inhibitors of Shiga Toxin; further: read at 38.3 µM for the half of the compounds with a filed dose
# CONDITION CONTEXT: cell reporter, cycloheximide protein synthesis inhibition counterscreen; active compounds read high
Among all 300,000 compounds or so, about 37,000 (12%) were called active. Only a selection was taken, and actives are over-represented in it overall.
I'd appreciate it if you could supply max response values for the items below.
One number for each entry, in %.

Before answering, review these 5 worked examples.
Cc1cc(C)c(NC(=O)CSc2nc3ccncc3[nH]2)c(C)c1 : 8.2
Cc1cc(C)nc(NNC2=CC(=O)CC(C)(C)C2)n1 : 2.37
OCCNc1nc2ccccc2[nH]1 : -3.17
CC(C)n1c(NCc2c[nH]c3ccccc23)nc2ccccc21 : 5.28
COc1ccccc1N(CC(=O)NC1CCCC1)C(=O)C1(C)CC(=O)N=C2C=CC(C)=CN21 (configuration not stated) : -3.56

List the reported max response of each compound below.
1. C=CCn1c(=O)c(C(=O)Nc2ncccc2O)c(O)c2ccccc21
2. CCOC(=O)/C(C#N)=C/c1ccc(N2CCCCC2)cc1
3. CCCc1c(C(=O)Nc2ccc(F)cc2)cnn1-c1ccccc1
4. O=C(NCCCCc1ccccc1)C1CC(c2ccc([N+](=O)[O-])cc2)=NO1 (configuration not stated)
5. CCCCCn1c(=O)c(C(=O)NCc2ccccn2)c(O)c2ccccc21
6. CC(=O)Oc1ccc(-c2cccc(C(=O)N3CCCCC3)c2)cc1
7. Cc1c(OC(C)C(=O)NCC2CCC(C(=O)O)CC2)ccc2c1oc(=O)c1ccccc12 (configuration not stated)
8. O=C(Cc1ccc(Cl)cc1)NC(=S)Nc1ccccc1O

A.
1. 0.679
2. 40.9
3. 33.4
4. 1.79
5. -1.8
6. 12.6
7. -1.17
8. 0.61
